Field: MCV. Provide a value for each of the compounds that follow.
Organism: Rattus norvegicus
Test: Open TG-GATES - Regimen: Daily Repeat
Assay type: toxicity, organism-based, Sprague-Dawley
Set-up: regimen Daily Repeat, gender Male, age 6 weeks
Conditions: in vivo, po, 300 mg/kg, […], tissue Blood, route gavage, dose level Middle, time 28 day
Express your answer in fL, writing the number without its unit.

Request: Field request: MCV | item: CCOc1ccc(NC(=O)CC(C)O)cc1 (stereo not given)
Result: 56

Request: Field request: MCV | item: COc1ccc2[nH]c([S+]([O-])Cc3ncc(C)c(OC)c3C)nc2c1 (stereo not given)
Result: 54.6

Request: Field request: MCV | item: CCOC(=O)CCC(=O)O[C@H]1[C@H](O[C@@H]2[C@@H](C)[C@H](O[C@H]3C[C@@](C)(OC)[C@@H](O)[C@H](C)O3)[C@@H](C)C(=O)O[C@H](CC)[C@@](C)(O)[C@H](O)[C@@H](C)C(=O)[C@H](C)C[C@@]2(C)O)O[C@H](C)C[C@@H]1N(C)C [ERYTHROMYCIN ETHYLSUCCINATE]
Result: 55.3

Request: Field request: MCV | item: `COC1=CC(=O)C[C@@H](C)[C@]12Oc1c(Cl)c(OC)cc(OC)c1C2=O`
Result: 58.8

Request: Field request: MCV | item: `NC(N)=Nc1nc(CSCCC(N)=NS(N)(=O)=O)cs1`
Result: 56.4

---

Field: MCH. Provide a value for each of the compounds that follow.
Species on record: Rattus norvegicus
Experiment: Open TG-GATES - Regimen: Daily Repeat
Type: toxicity, organism-based, Sprague-Dawley
Design: regimen Daily Repeat, gender Male, age 6 weeks
Settings: in vivo, po, 0 mg/kg, […], tissue Blood, route gavage, dose level Control, time 28 day
Express your answer in pg, writing the number without its unit.

Request: Field request: MCH | item: `O=C(CCCN1CCC(O)(c2ccc(Cl)cc2)CC1)c1ccc(F)cc1`
Result: 19.2

Request: Field request: MCH | item: `NC(N)=Nc1nc(CSCCC(N)=NS(N)(=O)=O)cs1`
Result: 20

Request: Field request: MCH | item: `COC1=CC(=O)C[C@@H](C)[C@]12Oc1c(Cl)c(OC)cc(OC)c1C2=O`
Result: 19.7

---

Organism: Rattus norvegicus
Test: Open TG-GATES - Regimen: Daily Repeat
Format: toxicity, organism-based, Sprague-Dawley
Design: regimen Daily Repeat, gender Male, age 6 weeks
Conditions: in vivo, po, 10 mg/kg, […], tissue Plasma, route gavage, dose level Low, time 14 day
READOUT_LABEL: RALB (g/dL)
Express your answer in g/dL, writing the number without its unit.

Request: Field request: RALB | item: CC1=C(/C=C/C(C)=C/C=C/C(C)=C/CO)C(C)(C)CCC1 [RETINOL]
Result: 3.1

Request: Field request: RALB | item: `CN(C)CCN(Cc1cccs1)c1ccccn1`
Result: 2.9

Request: Field request: RALB | item: CC(C)OC(=O)C(C)(C)Oc1ccc(C(=O)c2ccc(Cl)cc2)cc1 [FENOFIBRATE]
Result: 2.7

Request: Field request: RALB | item: CN(C)CCCN1c2ccccc2CCc2ccccc21 [IMIPRAMINE]
Result: 2.7

---

Species on record: Rattus norvegicus
Assay: Open TG-GATES - Regimen: Daily Repeat
Format: toxicity, organism-based, Sprague-Dawley
Design: regimen Daily Repeat, gender Male, age 6 weeks
Settings: in vivo, po, 0 mg/kg, […], tissue Blood, route gavage, dose level Control, time 14 day
READOUT_LABEL: Plat (x10_4/uL)
Express your answer in x10_4/uL, writing the number without its unit.

Request: Field request: Plat | item: `CC1=C(/C=C/C(C)=C/C=C/C(C)=C/CO)C(C)(C)CCC1`
Result: 122.4

Request: Field request: Plat | item: CCOc1ccc(NC(=O)CC(C)O)cc1 (stereo not drawn)
Result: 127.4

Request: Field request: Plat | item: `NC(N)=Nc1nc(CSCCC(N)=NS(N)(=O)=O)cs1`
Result: 118.4

Request: Field request: Plat | item: `NNC(=O)c1ccncc1`
Result: 114.6

Request: Field request: Plat | item: CCOC(=O)CCC(=O)O[C@H]1[C@H](O[C@@H]2[C@@H](C)[C@H](O[C@H]3C[C@@](C)(OC)[C@@H](O)[C@H](C)O3)[C@@H](C)C(=O)O[C@H](CC)[C@@](C)(O)[C@H](O)[C@@H](C)C(=O)[C@H](C)C[C@@]2(C)O)O[C@H](C)C[C@@H]1N(C)C [ERYTHROMYCIN ETHYLSUCCINATE]
Result: 104.3

Request: Field request: Plat | item: `CN(C)CCCN1c2ccccc2CCc2ccccc21`
Result: 119.8

Request: Field request: Plat | item: CC(C)OC(=O)C(C)(C)Oc1ccc(C(=O)c2ccc(Cl)cc2)cc1 [FENOFIBRATE]
Result: 111

Request: Field request: Plat | item: `COC1=CC(=O)C[C@@H](C)[C@]12Oc1c(Cl)c(OC)cc(OC)c1C2=O`
Result: 117

Request: Field request: Plat | item: `CN1C(=O)CN=C(c2ccccc2)c2cc(Cl)ccc21`
Result: 92.8

Request: Field request: Plat | item: `O=C(CCCN1CCC(O)(c2ccc(Cl)cc2)CC1)c1ccc(F)cc1`
Result: 107.4

Request: Field request: Plat | item: `CN(C)CCN(Cc1cccs1)c1ccccn1`
Result: 112.6

Request: Field request: Plat | item: COc1ccc2[nH]c([S+]([O-])Cc3ncc(C)c(OC)c3C)nc2c1 (stereo not drawn)
Result: 123.5

Request: Field request: Plat | item: CCCNC(=O)NS(=O)(=O)c1ccc(Cl)cc1 [CHLORPROPAMIDE]
Result: 122.4
